# assayText: RPL19A-GFP modulators, yeast TOR pathway, confirmation, cell-based, S. cerevisiae, flow cytometry, cherry picks, mother/daughter gates (AID 2270)
# measurementConditions: S. cerevisiae RPL19A-GFP strain, 3 h, measured here: daughter cell gate, at 10 µM, stronger effect = lower value, 100 = same GFP as DMSO wells
parameter: GFP response vs DMSO (%)

- CCOC(=O)Cc1csc(NC(=O)COc2ccc(N(C)S(=O)(=O)c3cccs3)cc2)n1: 94.9
- CCOC(=O)CSC1=NC(=O)/C(=C/c2ccc(OC)cc2)S1: 92.5
- Cc1cc(C)c(C)c(S(=O)(=O)ON2C(=O)c3ccccc3C2=O)c1C: 97.5
- O=[N+]([O-])/C=C/c1cn(Cc2ccc(Cl)cc2)c2ccccc12: 102
- NS(=O)(=O)c1ccc(S(=O)(=O)c2ccccc2)nc1: 99.1
- COC(=O)Nc1ccc2c(c1)N(C(=O)CCN1CCN3CCCC3C1)c1ccccc1CC2 (stereo not drawn): 101
- CNC(=O)/C(C#N)=C/c1c(N2CC(C)OC(C)C2)nc2ccccn2c1=O (stereo not drawn): 88.7
- COc1ccccc1NC(=O)c1ccc(N)cc1: 98
- CCn1c(=O)c(C(=O)NCCCO)c(O)c2ccccc21: 101
- COC(=O)Cc1csc(Nc2ccc(F)c(Cl)c2)n1: 102
- COc1cc(NC(=O)c2c(OC)cccc2OC)ccc1NC(=O)c1cc2ccccc2o1: 95.5
- COc1ccc(C2C3=C(CCCC3=O)N(CC(=O)O)C3=C2C(=O)CCC3)cc1Cl: 99
- CCN(CC)c1ccc(/C=C2\SC(=O)N(C(C)C)C2=O)o1: 99.8

Measured values drawn from PubChem BioAssay for this set.
